Target: T1, biotinylated human DLL3 protein expressed as a human IgG1 fusion protein (human, UniProt Q9NYJ7 27-492, limits assumed, biotinylated)
T1 sequence: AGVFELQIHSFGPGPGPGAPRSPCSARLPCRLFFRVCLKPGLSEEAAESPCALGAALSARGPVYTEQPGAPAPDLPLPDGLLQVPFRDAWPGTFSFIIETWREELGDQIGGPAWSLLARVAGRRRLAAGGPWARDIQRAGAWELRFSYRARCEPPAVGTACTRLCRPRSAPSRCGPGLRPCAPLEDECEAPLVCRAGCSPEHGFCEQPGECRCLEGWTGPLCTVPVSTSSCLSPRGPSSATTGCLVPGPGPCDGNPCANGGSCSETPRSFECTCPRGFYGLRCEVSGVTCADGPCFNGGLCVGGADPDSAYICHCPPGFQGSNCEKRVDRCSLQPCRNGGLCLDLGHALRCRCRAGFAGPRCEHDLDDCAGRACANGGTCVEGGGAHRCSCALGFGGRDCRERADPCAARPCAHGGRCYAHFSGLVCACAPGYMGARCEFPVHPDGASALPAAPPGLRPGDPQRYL
Experiment: Octet BLI, single 50 nM
pKd: −log10 of the molar value.
Recorded pKd by entry
Metric: pKd

3D09 anti-DLL3 trispecific protein (other, not shown: linker 1808, anti-albumin sdAb, linker 1808, anti-CD3 fragment, His6 1819) EVQLVESGGGLVQPGGSLTLSCAASGSSVSRLSMAWYRQAPGKKRELVAGISANGSTTYIDSVKGRFTISRDNAKNSVYLQMNSLRAEDTAVYYCYAYRWTTRYRYWGQGTLVTVSS: 7.49
1A09 anti-DLL3 trispecific protein (other, not shown: linker 1808, anti-albumin sdAb, linker 1808, anti-CD3 fragment, His6 1819) EVQLVESGGGLVQPGGSLTLSCVASGSTSSINAMAWYRRAPGKQRELVAGISSDGSKLYADSVKGRFTISRDNAKNSVYLQMNSLRAEDTAVYYCYYFRTVQGSSMRYWGQGTLVTVSS: 8.18
1C012 anti-DLL3 trispecific protein (other, not shown: linker 1808, anti-albumin sdAb, linker 1808, anti-CD3 fragment, His6 1819) EVQLVESGGGLVQPGGSLTLSCVASGITSSINAMGWYRRAPGKQRELVAGISSDGSKVYAGSVKGRFTISRDNAKNSVYLQMNSLRAEDTAVYYCYYFRTVRGSSMRYWGQGTLVTVSS: 8.07
2C06 anti-DLL3 trispecific protein (other, not shown: linker 1808, anti-albumin sdAb, linker 1808, anti-CD3 fragment, His6 1819) EVQLVESGGGLVQPGGSLTLSCVASGSTNSINAMGWYRRAPGKQRELVAGISSDGSKVYKDSVKGRFTISRDNAKNSVYLQMNSLRAEDTAVYYCYYYRTVSGSSMRYWGQGTLVTVSS: 8.17
3B07 anti-DLL3 trispecific protein (other, not shown: linker 1808, anti-albumin sdAb, linker 1808, anti-CD3 fragment, His6 1819) EVQLVESGGGLVQPGGSLTLSCAASGSRVSFLSMAWYRQAPGKKRELVAGISADGSTTYIDSVKGRFTISRDNAKNSVYLQMNSLRAEDTAVYYCYAYRWTTRYTYWGQGTLVTVSS: 8.14
1H012 anti-DLL3 trispecific protein (other, also called 1H12; not shown: linker 1808, anti-albumin sdAb, linker 1808, anti-CD3 fragment, His6 1819) EVQLVESGGGLVQPGGSLTLSCVASGSTSSINAMGWYRRAPGKQRELVAGISSDGSKVYVDSVKGRFTISRDNAKNSVYLQMNSLRAEDTAVYYCYYFRTVSGSSMPYWGQGTLVTVSS: 8.46
4D01 anti-DLL3 trispecific protein (other, not shown: linker 1808, anti-albumin sdAb, linker 1808, anti-CD3 fragment, His6 1819) EVQLVESGGGLVQPGGSLTLSCAASGSSVRFLSMAWYRQAPGKKRELVAGISADGSTVYIDSVKGRFTISRDNAKNSVYLQMNSLRAEDTAVYYCYAYRWTTRRTYWGQGTLVTVSS: 8.43
1F04 anti-DLL3 trispecific protein (other, not shown: linker 1808, anti-albumin sdAb, linker 1808, anti-CD3 fragment, His6 1819) EVQLVESGGGLVQPGGSLTLSCVASGGTSSINAMGWYRRAPGKQRELVAGISSDGSKVYSDSVKGRFTISRDNAKNSVYLQMNSLRAEDTAVYYCYYFRTVSGSSARYWGQGTLVTVSS: 8.00
4E011 anti-DLL3 trispecific protein (other, not shown: linker 1808, anti-albumin sdAb, linker 1808, anti-CD3 fragment, His6 1819) EVQLVESGGGLVQPGGSLTLSCAASGSSVSFLSMAWYRQAPGKKRELVAGISATGSTDYIDSVKGRFTISRDNAKNSVYLQMNSLRAEDTAVYYCYAYRWSTRYTYWGQGTLVTVSS: 7.89
1C04 anti-DLL3 trispecific protein (other, not shown: linker 1808, anti-albumin sdAb, linker 1808, anti-CD3 fragment, His6 1819) EVQLVESGGGLVQPGGSLTLSCVASGNTSSINAMAWYRRAPGKQRELVAGISSDGSKVYADSVKGRFTISRDNAKNSVYLQMNSLRAEDTAVYYCYYFRTVSGSSMRYWGQGTLVTVSS: 8.09
2C01 anti-DLL3 trispecific protein (other, not shown: linker 1808, anti-albumin sdAb, linker 1808, anti-CD3 fragment, His6 1819) EVQLVESGGGLVQPGGSLTLSCVASGSTASINAMGWYRRAPGKQRELVAGISSDGSKVYADSVKGRFTISRDNAKNSVYLQMNSLRAEDTAVYYCYYFRYVSGSSMRYWGQGTLVTVSS: 7.92
2G09 anti-DLL3 trispecific protein (other, not shown: linker 1808, anti-albumin sdAb, linker 1808, anti-CD3 fragment, His6 1819) EVQLVESGGGLVQPGGSLTLSCVASGSTSSINAMGWYRRAPGKQRELVAGVSSDGSKVYADSVKGRFTISRDNAKNSVYLQMNSLRAEDTAVYYCYYFRTVSGSSARYWGQGTLVTVSS: 8.10
1D010 anti-DLL3 trispecific protein (other, not shown: linker 1808, anti-albumin sdAb, linker 1808, anti-CD3 fragment, His6 1819) EVQLVESGGGLVQPGGSLTLSCVASGSTSSNNAMAWYRRAPGKQRELVAGISSDGSKVYTDSVKGRFTISRDNAKNSVYLQMNSLRAEDTAVYYCYYFRTRSGSSMRYWGQGTLVTVSS: 8.30
1F06 anti-DLL3 trispecific protein (other, not shown: linker 1808, anti-albumin sdAb, linker 1808, anti-CD3 fragment, His6 1819) EVQLVESGGGLVQPGGSLTLSCVASGTTSSINAMGWYRRAPGKQRELVAGISSDGSKVIADSVKGRFTISRDNAKNSVYLQMNSLRAEDTAVYYCYYFRTVLGSSMRYWGQGTLVTVSS: 8.05
3A06 anti-DLL3 trispecific protein (other, not shown: linker 1808, anti-albumin sdAb, linker 1808, anti-CD3 fragment, His6 1819) EVQLVESGGGLVQPGGSLTLRCAASGSKVSFLSMAWYRQAPGKKRELVAGISADGSTDYVDSVKGRFTISRDNAKNSVYLQMNSLRAEDTAVYYCYAYRWTRRYTYWGQGTLVTVSS: 7.80
